Would you mind telling me the reported AC50 of each entry?
Target: Progesterone receptor (Homo sapiens, UniProt P06401); further: assay procedure not described here
Sequence (P06401 whole entry): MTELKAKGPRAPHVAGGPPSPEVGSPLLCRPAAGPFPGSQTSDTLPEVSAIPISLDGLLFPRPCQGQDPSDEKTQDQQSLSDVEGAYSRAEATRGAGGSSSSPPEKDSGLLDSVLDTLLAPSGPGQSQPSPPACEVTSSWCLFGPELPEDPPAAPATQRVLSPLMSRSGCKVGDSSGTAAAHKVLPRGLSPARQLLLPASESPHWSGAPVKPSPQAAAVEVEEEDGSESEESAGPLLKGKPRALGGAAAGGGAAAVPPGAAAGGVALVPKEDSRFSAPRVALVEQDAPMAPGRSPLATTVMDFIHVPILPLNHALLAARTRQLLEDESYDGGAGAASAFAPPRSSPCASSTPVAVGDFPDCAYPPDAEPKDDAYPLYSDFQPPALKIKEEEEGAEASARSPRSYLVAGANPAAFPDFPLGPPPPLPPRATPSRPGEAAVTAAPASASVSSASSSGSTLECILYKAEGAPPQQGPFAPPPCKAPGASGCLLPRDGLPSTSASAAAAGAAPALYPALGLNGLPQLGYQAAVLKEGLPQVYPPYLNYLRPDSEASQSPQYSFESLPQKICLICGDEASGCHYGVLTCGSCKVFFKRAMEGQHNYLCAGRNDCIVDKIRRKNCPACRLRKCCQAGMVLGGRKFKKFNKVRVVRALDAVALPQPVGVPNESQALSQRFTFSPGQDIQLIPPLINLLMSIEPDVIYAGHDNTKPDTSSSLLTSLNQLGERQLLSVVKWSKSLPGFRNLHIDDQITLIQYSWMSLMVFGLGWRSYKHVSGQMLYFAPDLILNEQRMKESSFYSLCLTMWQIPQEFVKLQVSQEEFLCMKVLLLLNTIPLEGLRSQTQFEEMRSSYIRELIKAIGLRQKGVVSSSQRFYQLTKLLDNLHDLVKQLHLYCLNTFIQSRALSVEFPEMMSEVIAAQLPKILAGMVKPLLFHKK
Format: functional

GET /values?readout=AC50&item= COC(=O)[C@H]1[C@@H](OC(=O)c2ccccc2)C[C@@H]2CC[C@H]1N2C
> 30 µM

GET /values?readout=AC50&item= NC(=O)c1cnccn1 [PYRAZINAMIDE]
> 30 µM

GET /values?readout=AC50&item= CC(=O)N[C@H]1[C@H]([C@H](O)[C@H](O)CO)OC(C(=O)O)=C[C@@H]1N=C(N)N
> 30 µM

GET /values?readout=AC50&item= COc1c(N2CCNC(C)C2)c(F)cc2c(=O)c(C(=O)O)cn(C3CC3)c12 (stereo not drawn)
> 10 µM

GET /values?readout=AC50&item= NC(=O)c1ncn([C@@H]2O[C@H](CO)[C@@H](O)[C@H]2O)c1O
> 30 µM

GET /values?readout=AC50&item= CCCCCCC(C)(C)c1cc(O)c2c(c1)OC(C)(C)C1CCC(=O)CC21 (stereo not drawn)
> 30 µM

GET /values?readout=AC50&item= CS(=O)(=O)Nc1cc2occ(NC=O)c(=O)c2cc1Oc1ccccc1
> 30 µM

GET /values?readout=AC50&item= NS(=O)(=O)c1cc(-c2nnn[nH]2)c(NCc2cccs2)cc1Cl [AZOSEMIDE]
> 30 µM

GET /values?readout=AC50&item= CCCC(CCC)C(=O)O[C@H]1C[C@H]2CC[C@@H](C1)[N+]2(C)C
> 30 µM

GET /values?readout=AC50&item= O=C1NCCN1CCN1CCC(c2cn(-c3ccc(F)cc3)c3ccc(Cl)cc23)CC1
> 30 µM

GET /values?readout=AC50&item= O=C(CCCCC(=O)Nc1c(I)cc(I)c(C(=O)O)c1I)Nc1c(I)cc(I)c(C(=O)O)c1I [IODIPAMIDE]
> 10 µM

GET /values?readout=AC50&item= OCc1cc([C@@H](O)CNCCCCCCOCCOCc2c(Cl)cccc2Cl)ccc1O
> 30 µM

GET /values?readout=AC50&item= COc1ccc2c(c1)C(=O)N(CCc1ccc(S(=O)(=O)NC(=O)NC3CCCCC3)cc1)C(=O)C2(C)C
> 30 µM

GET /values?readout=AC50&item= CC(C)Cc1ccc(CC(=O)O)cc1
> 30 µM

GET /values?readout=AC50&item= CCOC(=O)[C@H](CCc1ccccc1)N[C@H]1CCCN2CCC[C@@H](C(=O)O)N2C1=O
> 30 µM

GET /values?readout=AC50&item= COC(=O)C1=C(C)NC(C)=C(C(=O)OCC(C)C)C1c1ccccc1[N+](=O)[O-] (stereo not drawn)
4.9 µM

GET /values?readout=AC50&item= O=C(CCCCCCC(=O)Nc1ccccc1)NO
> 30 µM

GET /values?readout=AC50&item= COc1ccccc1OCC(O)COC(N)=O (stereo not drawn)
> 30 µM
